Where do these numbers come from? They come from paper PMC5041076.

Parameter: pIC50. Scope: all listed entries.
target: Bovine chymotrypsin (Bos taurus, UniProt P00766)
pIC50: −log10 of the molar value.

{"compound": "N#CC=C1C=CC(O)CC1OC1OC(CO)C(O)C(O)C1O (stereo not drawn)", "pIC50": "< 4.52"}
{"compound": "C[C@@H]1O[C@@H](O[C@H]2[C@H](OC(=O)[C@]34CCC(C)(C)[C@@H](O)[C@H]3C3=CC[C@@H]5[C@@]6(C)CC[C@H](O[C@@H]7OC[C@H](O)[C@H](O[C@@H]8O[C@H](CO)[C@@H](O)[C@H](O)[C@H]8O)[C@H]7O[C@@H]7O[C@@H](C)[C@H](O)[C@@H](O)[C@H]7O)C(C)(C)[C@@H]6CC[C@@]5(C)[C@]3(C)CC4)O[C@H](CO)[C@@H](O)[C@@H]2O)[C@H](O)[C@H](O)[C@H]1O", "pIC50": "< 4.52"}
{"compound": "C[C@@H]1O[C@@H](O[C@H]2[C@H](O[C@H]3CC[C@]4(C)[C@H]5C=CC6=C7[C@]8(CC[C@](C)(OC8=O)[C@@]7(C)O)CC[C@@]6(C)[C@]5(C)CC[C@H]4C3(C)C)OC[C@H](O)[C@@H]2O[C@@H]2O[C@H](CO)[C@@H](O)[C@H](O)[C@H]2O)[C@H](O)[C@H](O)[C@H]1O", "pIC50": "< 4.52"}
{"compound": "CC1(C)CC[C@]2(C(=O)O)CC[C@]3(C)C(=CC[C@@H]4[C@@]5(C)CC[C@H](O)C(C)(C)[C@@H]5CC[C@]43C)[C@@H]2[C@@H]1O", "pIC50": "< 4.52"}
{"compound": "O=C(/C=C/c1ccc(O)c(O)c1)O[C@@H]1C[C@](O)(C(=O)O)C[C@@H](O)[C@H]1O", "pIC50": "< 4.52"}
{"compound": "C=C1C2=C3C=C[C@@H]4[C@@]5(C)CC[C@H](O)C(C)(C)[C@@H]5CC[C@@]4(C)[C@]3(C)CC[C@@]23CC[C@]1(C)OC3=O", "pIC50": 5.22}

====

system: fMLF/CB-activated neutrophils; experiment: Elastase release in fMLF/CB-activated neutrophils; format: cell-based; conditions: Homo sapiens, Neutrophil, read-out: IC50 HNE (NE activity / elastase release)
pIC50: −log10 of the molar value.
pIC50 values, listed per item

{"compound": "C[C@H]1[C@H](C)CC[C@]2(C(=O)O)CC[C@]3(C)C(=CC[C@@H]4[C@@]5(C)CC[C@H](O)C(C)(C)[C@@H]5CC[C@]43C)[C@H]12", "experimental_system": "fMLF/CB-activated neutrophils", "pIC50": 5.97}
{"compound": "O=C(O)/C=C/c1ccc(O)c(O)c1 [CA, caffeic acid, reference compound]", "experimental_system": "fMLF/CB-activated neutrophils", "pIC50": "< 5.00"}
{"compound": "CC1=C(C)C2C3=CCC4[C@@]5(C)CC[C@H](O)C(C)(C)C5CC[C@@]4(C)[C@]3(C)CC[C@@]2(C(=O)O)CC1 (some centres unmarked)", "experimental_system": "fMLF/CB-activated neutrophils", "pIC50": 6.70}
{"compound": "O=C(O)C=Cc1cccc(O)c1 [Compound 3-HCA, 3-hydroxycinnamic acid, reference compound]", "experimental_system": "fMLF/CB-activated neutrophils", "pIC50": "< 5.00"}
{"compound": "O=C(O)/C=C/c1ccc(O)cc1 [p-CA, p-coumaric acid, reference compound]", "experimental_system": "fMLF/CB-activated neutrophils", "pIC50": "< 5.00"}
{"compound": "O=C(O)[C@]1(O)C[C@@H](O)[C@@H](O)[C@H](O)C1", "experimental_system": "fMLF/CB-activated neutrophils", "pIC50": "< 5.00"}
{"compound": "N#CC=C1C=CC(O)CC1OC1OC(CO)C(O)C(O)C1O (centres unmarked)", "experimental_system": "fMLF/CB-activated neutrophils", "pIC50": "< 5.00"}
{"compound": "O=C(C=Cc1ccc(O)c(O)c1)OC1CC(O)(C(=O)O)CC(OC(=O)C=Cc2ccc(O)c(O)c2)C1O (centres unmarked)", "experimental_system": "fMLF/CB-activated neutrophils", "pIC50": 4.92}
